Target: CYP2B1 (Rattus norvegicus, UniProt P00176)
Sequence (P00176 1-491): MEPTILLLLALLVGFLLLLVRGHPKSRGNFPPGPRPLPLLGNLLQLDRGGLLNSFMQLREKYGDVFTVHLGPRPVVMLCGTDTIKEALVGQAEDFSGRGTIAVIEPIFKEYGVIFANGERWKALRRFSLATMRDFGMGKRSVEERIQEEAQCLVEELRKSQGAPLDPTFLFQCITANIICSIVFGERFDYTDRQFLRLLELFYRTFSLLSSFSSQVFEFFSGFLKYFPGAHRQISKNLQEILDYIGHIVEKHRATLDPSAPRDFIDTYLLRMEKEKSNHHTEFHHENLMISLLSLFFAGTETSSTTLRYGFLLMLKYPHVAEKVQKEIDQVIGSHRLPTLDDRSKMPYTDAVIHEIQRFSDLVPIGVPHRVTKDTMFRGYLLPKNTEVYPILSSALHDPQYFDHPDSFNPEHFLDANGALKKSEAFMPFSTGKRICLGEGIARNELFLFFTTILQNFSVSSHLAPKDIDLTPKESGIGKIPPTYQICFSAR
endpoint: pIC50
One number for each entry, as −log10 of the molar value.

## Input For the molecule CC(C)(C(=O)c1cccnc1)c1cccnc1 [MTY] , what pIC50 is on record?
## Output 5.37
